# experiment: Selectivity index, ratio of CC50 for human MT4 cells to EC50 for HIV1 3B
# Type: toxicity, cell-based
# protocolConditions: read-out: Ratio CC50/EC50
# selectivity ratio annotations

Recorded results for 2 compounds are shown here.
INSERT INTO measurements (testsmiles, valuemeasured) VALUES
  ('Cc1cc(C)c(Oc2cc(Nc3ccc(C#N)cc3)[nH]c(=O)c2I)c(C)c1', 6),
  ('COc1cc(Oc2c(C)cc(C)cc2C)cc(Nc2ccc(C#N)cc2)n1', 35);

-- ask Fill in the blank: the reported selectivity ratio of Cc1cc(C#N)cc(C)c1Oc1cc(Nc2ccc(C#N)cc2)[nH]c(=O)c1I is ____.
-- reply > 89

-- ask Cool, now COc1cc(Oc2c(C)cc(C#N)cc2C)cc(Nc2ccc(C#N)cc2)n1
-- reply ≥ 211

-- ask Cool, now Cc1cc(C#N)cc(C)c1Oc1cc(Nc2ccc(C#N)cc2)[nH]c(=O)c1Cl
-- reply > 44

###

# experiment: Cytotoxicity against human MT4 cells after 5 days by MTT assay
# Format: cell-based
Could you mark each record rule met if its CC50 at 120 h falls strictly under 30 µM, and rule not met if it equals or exceeds it?

Example entries begin here.
INSERT INTO assay_data (testsmiles, categorylabel) VALUES
  ('COc1cc(Oc2cc(C)cc(C)c2)cc(Nc2ccc(C#N)cc2)n1', 'rule met'),
  ('Cc1cc(C#N)cc(C)c1Oc1cc(Nc2ccc(C#N)cc2)[nH]c(=O)c1Br', 'rule not met'),
  ('Cc1cc(C)c(Oc2cc(Nc3ccc([N+](=O)[O-])cc3)[nH]c(=O)c2)c(C)c1', 'rule met'),
  ('Cc1cc(C)c(Oc2cc(Nc3ccc(C#N)cc3)[nH]c(=O)c2Cl)c(C)c1', 'rule not met'),
  ('Cc1cccc(C)c1Oc1cc(Nc2ccc(C#N)cc2)[nH]c(=O)c1Br', 'rule not met'),
  ('Cc1cc(C)c(Oc2cc(Nc3ccc(C#N)cc3)[nH]c(=O)c2)c(C)c1', 'rule not met'),
  ('Cc1cc(C)cc(Oc2cc(Nc3ccc(C#N)cc3)[nH]c(=O)c2)c1', 'rule not met'),
  ('Cc1cc(C)c(Oc2cc(Nc3ccc(C#N)cc3)[nH]c(=O)c2Br)c(C)c1', 'rule not met');

Let us examine a further case.
-- ask Hello, I'm reviewing records and need to know if CC50 at 120 h of COc1cc(Oc2c(C)cc(C)cc2C)cc(Nc2ccc([N+](=O)[O-])cc2)n1 is below 30 µM. Could you check?
-- reply rule met

###

# EC50 annotations
# Tested on: Human immunodeficiency virus 1
# experiment: Antiviral activity against HIV1 harboring reverse transcriptase K101N/Y181C double mutant infected in human MT4 cells
# Assay type: functional, organism-based
# protocolConditions: Human immunodeficiency virus 1, MT4
Please state the figure in nM; there is no need to write the unit.

INSERT INTO measurements (testsmiles, valuemeasured) VALUES
  ('Cc1cc(C)cc(Oc2c(CSCc3ccco3)c(C)[nH]c(=O)c2I)c1', 4);

Consider now this further molecule.
-- ask Fill in the blank: the reported EC50 of Cc1cc(C#N)cc(C)c1Oc1nc(Nc2ccc(C#N)cc2)nc(N)c1Br is ____.
-- reply 4.3

###

Dear all, this message contains IC50 results, target or system Human immunodeficiency virus type 1 reverse transcriptase (Human immunodeficiency virus 1).
Form entry: enter the amount, then its unit.

INSERT INTO measurements (testsmiles, systemtested, measurementtype, valuemeasured) VALUES
  ('Cc1cc(C)c(Oc2cc(Nc3ccc(C#N)cc3)[nH]c(=O)c2)c(C)c1', 'Human immunodeficiency virus type 1 reverse transcriptase (Human immunodeficiency virus 1)', 'IC50', '39 µM');

-- ask Fill in the blank: the reported IC50 of Cc1cc(C#N)cc(C)c1Oc1cc(Nc2ccc(C#N)cc2)[nH]c(=O)c1 is ____.
-- reply 5.2 µM
